Give pIC50 for every item shown.
Test system: HeLa WT-β-III cells
Test: Antiproliferative SRB assay, βIII-tubulin expressing HeLa
Format: cell-based, human
Details: Homo sapiens, HeLa; Table 49; βIII tubulin expressing line, 48 hr, SRB assay
pIC50 field: float, defined as -log10 of concentration (mol/L).

## Input Using known records, supply pIC50 for C=Cc1[nH]c(C(=O)OCC)c(Br)c1-c1ccc(OC)c(OC)c1OC [Example 7]
## Output 7.69

## Input Using known records, supply pIC50 for CCOC(=O)c1[nH]c(C=NOC)c(-c2ccc(OC)c(OC)c2OC)c1Br (mixture of isomers) [Example 12]
## Output 7.90

## Input Using known records, supply pIC50 for CCOC(=O)c1[nH]c(C=O)c(-c2ccc(OC)c(OC)c2OC)c1Cl [Example 3]
## Output 6.98

## Input Using known records, supply pIC50 for CCOC(=O)c1[nH]c(C=NO)c(-c2ccc(OC)c(OC)c2OC)c1Cl (mixture of isomers) [Example 21]
## Output 6.96

## Input Using known records, supply pIC50 for CCOC(=O)c1[nH]c(C=O)c(-c2ccc(OC)c(OC)c2OC)c1Br [Example 2]
## Output 6.98

## Input Using known records, supply pIC50 for CCCNC=C1NC(C(=O)OCC)C(Br)=C1c1ccc(OC)c(OC)c1OC (centres unmarked) [Example 17]
## Output 5.70

## Input Using known records, supply pIC50 for CCOC(=O)c1[nH]c(C(F)F)c(-c2ccc(OC)c(OC)c2OC)c1Br [Example 6]
## Output 6.74

## Input Using known records, supply pIC50 for CCOC(=O)c1[nH]c(/C=C\C(=O)OC)c(-c2ccc(OC)c(OC)c2OC)c1Br [Example 8a]
## Output 7.59

## Input Using known records, supply pIC50 for CCOC(=O)c1[nH]c(Cl)c(-c2ccc(OC)c(OC)c2OC)c1Cl [Example 23]
## Output 6.86

## Input Using known records, supply pIC50 for CCOC(=O)c1[nH]c(CN)c(-c2ccc(OC)c(OC)c2OC)c1Br [Example 13]
## Output 7.81

## Input Using known records, supply pIC50 for CCOC(=O)c1[nH]c(/C=C/C(=O)OC)c(-c2ccc(OC)c(OC)c2OC)c1Br [Example 8b]
## Output 7.71

---

Give IC50 for every item shown.
Tested on: HeLa (human cervical cancer cells)
Assay: Antiproliferative SRB assay, HeLa
Type: cell-based
Conditions: Homo sapiens, HeLa, Table 48, 48 hr exposure, read-out: HeLa Anti-Proliferative Activity, IC50
Field format: number, assumed nM, no unit text.

## Input Using known records, supply IC50 for `CCOC(=O)c1[nH]c(C#N)c(-c2ccc(OC)c(OC)c2OC)c1Br`
## Output 20.6

## Input Using known records, supply IC50 for CCOC(=O)c1[nH]c(C=NOC)c(-c2ccc(OC)c(OC)c2OC)c1Br (mixture of isomers)
## Output 11.9

## Input Using known records, supply IC50 for `CCOC(=O)c1[nH]c(/C=C\C(=O)OC)c(-c2ccc(OC)c(OC)c2OC)c1Br`
## Output 14.8

## Input Using known records, supply IC50 for `CCOC(=O)c1[nH]c(C=O)c(-c2ccc(OC)c(OC)c2OC)c1I`
## Output 39.9

---

System: A-10 cells
Experiment: Cellular microtubule loss by indirect immunofluorescence
Type: cell-based, rat
Conditions: Table 52; read-out: EC50 Values (nM) for Microtubule Loss in A-10 cells
metric: EC50 (nM)
Field format: number, assumed nM, no unit text.

## Input Using known records, supply EC50 for CCOC(=O)c1[nH]c(C=NO)c(-c2ccc(OC)c(OC)c2OC)c1Br (mixture of isomers) [Example 10a]
## Output 8.9

## Input Using known records, supply EC50 for CCOC(=O)c1[nH]c(C=NO)c(-c2ccc(OC)c(OC)c2OC)c1Br [Example 10c]
## Output 56.2

---

System: MDA-MB-435 (human melanoma cancer cells)
Experiment: Antiproliferative SRB assay, MDA-MB-435
Assay type: cell-based
Conditions: Table 48; 48 hr exposure, SRB assay; read-out: MDA-MB-435 Anti-Proliferative Activity, IC50
metric: pIC50
pIC50 field: float, defined as -log10 of concentration (mol/L).

## Input Using known records, supply pIC50 for CCOC(=O)c1[nH]c(C=NO)c(-c2ccc(OC)c(OC)c2OC)c1Br (mixture of isomers) [Example 10a]
## Output 8.57

---

Tested on: A-10 cells
Assay: Cellular microtubule loss by indirect immunofluorescence
Format: cell-based, rat
Settings: Table 50; concentration causing approximately 50% loss of interphase microtubules; read-out: EC50 Values (nM) for Microtubule Loss in A-10 cells
Give EC50 for every item shown.
Field format: number, assumed nM, no unit text.

## Input Report its EC50 with A-10 cells as the test system: CCOC(=O)c1[nH]c(C=NO)c(-c2ccc(OC)c(OC)c2OC)c1Br (mixture of isomers) [Example 10a]
## Output 9.8

## Input Report its EC50 with A-10 cells as the test system: CCOC(=O)c1[nH]c(C=NO)c(-c2ccc(OC)c(OC)c2OC)c1Br [Example 10c]
## Output 56.2

---

Give pIC50 for every item shown.
Tested on: SK-OV-3 (human ovarian cancer cells)
Assay: Antiproliferative SRB assay, SK-OV-3
Format: cell-based
Conditions: Homo sapiens, SK-OV-3, Table 49, parental line, 48 hr, read-out: SK-OV-3 IC50
pIC50 field: float, defined as -log10 of concentration (mol/L).

## Input Using known records, supply pIC50 for `CCOC(=O)c1[nH]c(C(F)F)c(-c2ccc(OC)c(OC)c2OC)c1Br`
## Output 6.64

## Input Using known records, supply pIC50 for CCCNC=C1NC(C(=O)OCC)C(Cl)=C1c1ccc(OC)c(OC)c1OC (centres unmarked)
## Output 7.68

## Input Using known records, supply pIC50 for `C=Cc1[nH]c(C(=O)OCC)c(Br)c1-c1ccc(OC)c(OC)c1OC`
## Output 7.58

## Input Using known records, supply pIC50 for `CCOC(=O)c1[nH]c(C=O)c(-c2ccc(OC)c(OC)c2OC)c1Cl`
## Output 7.17

## Input Using known records, supply pIC50 for `CCOC(=O)c1[nH]c(Br)c(-c2ccc(OC)c(OC)c2OC)c1Br`
## Output 7.82

## Input Using known records, supply pIC50 for CCOC(=O)c1[nH]c(C=NOC)c(-c2ccc(OC)c(OC)c2OC)c1Br (mixture of isomers)
## Output 7.86

## Input Using known records, supply pIC50 for `CCOC(=O)c1[nH]c(C=O)c(-c2ccc(OC)c(OC)c2OC)c1I`
## Output 7.17

## Input Using known records, supply pIC50 for CCOC(=O)c1[nH]c(C=NO)c(-c2ccc(OC)c(OC)c2OC)c1Cl (mixture of isomers)
## Output 6.76

## Input Using known records, supply pIC50 for CCCNC=C1NC(C(=O)OCC)C(Br)=C1c1ccc(OC)c(OC)c1OC (centres unmarked)
## Output 5.52

## Input Using known records, supply pIC50 for `CCOC(=O)c1[nH]c(CN)c(-c2ccc(OC)c(OC)c2OC)c1Br`
## Output 7.64

## Input Using known records, supply pIC50 for `CCOC(=O)c1[nH]c(C#N)c(-c2ccc(OC)c(OC)c2OC)c1Br`
## Output 7.58

## Input Using known records, supply pIC50 for `CCOC(=O)c1[nH]c(/C=C/C(=O)OC)c(-c2ccc(OC)c(OC)c2OC)c1Br`
## Output 7.65

## Input Using known records, supply pIC50 for `CCOC(=O)c1[nH]c(/C=C\C(=O)OC)c(-c2ccc(OC)c(OC)c2OC)c1Br`
## Output 7.79

## Input Using known records, supply pIC50 for `CCOC(=O)c1[nH]c(Cl)c(-c2ccc(OC)c(OC)c2OC)c1Cl`
## Output 6.68

## Input Using known records, supply pIC50 for `CCOC(=O)c1[nH]c(CO)c(-c2ccc(OC)c(OC)c2OC)c1Br`
## Output 7.43

## Input Using known records, supply pIC50 for `CCOC(=O)c1[nH]c(C=O)c(-c2ccc(OC)c(OC)c2OC)c1Br`
## Output 7.14

## Input Using known records, supply pIC50 for `CCOC(=O)c1[nH]c(CN)c(-c2ccc(OC)c(OC)c2OC)c1Cl`
## Output 7.56

---

Test system: SK-OV-3 (human ovarian cancer cells)
Assay: Antiproliferative SRB assay, SK-OV-3
Format: cell-based
Settings: Table 49, parental line, 48 hr, read-out: SK-OV-3 IC50
metric: IC50 (µM)
Field format: number, assumed µM, no unit text.

## Input Using known records, supply IC50 for CCOC(=O)c1[nH]c(C=NO)c(-c2ccc(OC)c(OC)c2OC)c1Br (mixture of isomers) [Example 10a]
## Output 0.0053

## Input Using known records, supply IC50 for CCOC(=O)c1[nH]c(C=NO)c(-c2ccc(OC)c(OC)c2OC)c1Br [Example 10c]
## Output 0.0231

Source listed as patent US9944597B2.
